# System: PPARg homodimer (NR concentration 180 nM)
# assay-name: PBM binding z-score (relative to random genomic background probes); higher = stronger binding; sequences stand for … in GC…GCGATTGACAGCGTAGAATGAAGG
Would you please tag the item t when its PBM binding z-score is -0.05 or above, and f when it is below?

// query Reported PBM binding z-score at or above -0.05? `TCTATTAGTTGATTATGGCAACCGAAACAGCGGA`
// result t

// query Reported PBM binding z-score at or above -0.05? `CCTGCTAGGTCAGGGTCAGCTAATCTACAGTATG`
// result t

// query Reported PBM binding z-score at or above -0.05? `CAAACTACGTCACAGAGGTCAAAGTCCGTGCGTA`
// result t

// query Reported PBM binding z-score at or above -0.05? `TCTCGGAGGACACGAACGGTCAGAGCTCGACATC`
// result f

// query Reported PBM binding z-score at or above -0.05? `ATATCAAGGTGATCGTGAGGTCGTTGATACTAAC`
// result t

// query Reported PBM binding z-score at or above -0.05? `AGAATGAGGTTATACGTAGATCACGGAAGAAAGT`
// result t

// query Reported PBM binding z-score at or above -0.05? `CCAGACAGGCGAAAGGTAACTCAGTCTGGTACGC`
// result f

// query Reported PBM binding z-score at or above -0.05? `TCTCGTTGGTCAAAGGTCACACACTCGAAATGCG`
// result t

// query Reported PBM binding z-score at or above -0.05? `TCTAGTTAGTCAAAGGTCACACACTCGAAATGCG`
// result t

// query Reported PBM binding z-score at or above -0.05? `TCAGACAGGTGAAGGTAACTCCGGTACGCAGTCG`
// result t

// query Reported PBM binding z-score at or above -0.05? `GTACCCAGGTGAATAGGTCGTTGATGAGTAGGCG`
// result t

// query Reported PBM binding z-score at or above -0.05? `TCTTGTAGATCAACGGTTAAGAAAGCCGAAGCCT`
// result t

// query Reported PBM binding z-score at or above -0.05? `CCGACTGGGGAAAAGGTTACCATACTCAGTACGA`
// result t

// query Reported PBM binding z-score at or above -0.05? `GCATATAGGTAATAGAAGGTGAAAGTCCGATTGT`
// result t

// query Reported PBM binding z-score at or above -0.05? `ACTAGCAGGCCAAGGGCCACTCAAGATTAGTCCG`
// result f

// query Reported PBM binding z-score at or above -0.05? `GCGACTGGGGCATCAGCACGTTACCATAACTTAA`
// result t

// query Reported PBM binding z-score at or above -0.05? `CCGAGTAGGTTATGGGGCATGCAGGCAACGGTGA`
// result t

// query Reported PBM binding z-score at or above -0.05? `GCAGACAGGTGAAACGAAGGTAACTCAGGGTGGC`
// result f

----------
# Test system: VDR homodimer (NR concentration 270 nM)
# assay-name: PBM binding z-score (relative to random genomic background probes); higher = stronger binding; sequences stand for … in GC…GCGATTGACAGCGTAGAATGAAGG
Would you please tag the item TRUE when its PBM binding z-score is 0.7 or above, and FALSE when it is below?

Worked examples follow.
monomer_sequence=CCGACTGGGGCATAAGGCTACCATAAGCCAGCCC answer_label=FALSE
monomer_sequence=GCTGCTAGGTCAACGGATGGTCAGCTAAAGCTCG answer_label=FALSE
monomer_sequence=CAAACTAGGTAAAGAGGTCAAAGTCCGCTTCCCG answer_label=TRUE
monomer_sequence=CAAACTAGGCCAAAGGTCAAAGTCGAGCCAACCA answer_label=TRUE
monomer_sequence=AGAATGAGGTTATAAGTAGATCAGGGAAGAAAGT answer_label=TRUE

We next turn to a different sequence, shown below.
// query Reported PBM binding z-score at or above 0.7? `TAGCCTAGGTCATGCGCCAGTATACCACGCGAAC`
// result FALSE
